tested on: HCT-15 colon; experiment: NCI-60 one-dose screen, 48 h (100 = growth as untreated, 0 = no growth, -100 = all killed); settings: 10 µM unless noted
This is part of a sample that, as a whole, favours compounds with a hit. Of some 83,000 tested, about 20% had one in any assay.
Param label: returns met when growth < 20%, returns not met otherwise, including exact equality.

Dear reviewer, please state whether NS(=O)(=O)c1ccc(NC2=C(Cl)C(=O)c3ccccc3C2=O)cc1 has growth strictly beneath 20%. not met

Entry O=C1NCN(c2ccccc2)C12CCN(CCCC(c1ccc(F)cc1)c1ccc(F)cc1)CC2 please not met

Entry C=C1c2c(C)nn(-c3ccc(C#CCOC4OC(CO)C(O)C(O)C4O)cc3)c2N(C)C23C[C@H]1C1(C)c4c(C)nn(-c5ccc(C#CCOC6OC(CO)C(O)C(O)C6O)cc5)c4N(C)C(C)(C[C@H]12)C3 (some centres not stated) please not met

Entry N#Cc1ccc(NC(=O)Nc2ccc(Oc3ccc(NC(=O)Nc4ccc(C#N)cc4)cc3)cc2)cc1 please not met

Entry O=C(C=C=Nc1ccccc1)C(=O)N=C=Cc1ccccc1 please met

Entry CC[C@]1(O)CC2CN(CCc3c([nH]c4ccccc34)[C@@](C(=O)OC)(c3cc4c(cc3OC)N(C)[C@H]3[C@@](O)(C(=O)OC)[C@H](OC(C)=O)[C@]5(CC)C=CCN6CC[C@]43[C@@H]65)C2)C1 (some centres not stated) please met

Entry O=C(O)c1ccc(NC(=O)c2cccc(Nc3ccnc(C(F)(F)F)c3)c2)cc1 please not met

###

system: SK-MEL-2 melanoma; assay: NCI-60 one-dose screen, 48 h; settings: 10 µM unless noted
The panel holds about 83,000 compounds, 20% with a hit somewhere; the sample as a whole holds those more often. Active and inactive are the calls of the source. The calls were made as follows: active = growth percent below 10; inactive = the rest.
A correct response names exactly one class from 1.0 = active, 0.0 = inactive

Which outcome was assigned to Cc1cc(C(C)(C)c2cc(C)c(O)c(CN(C)C)c2)cc(CN(C)C)c1O in this test? 0.0

Entry C=CC1=C(C(=O)O)N2C(=O)[C@@H](NC(=O)/C(=N\O)c3csc(N)n3)[C@H]2SC1 (stereo in doubt) please 0.0

Entry Cc1cc(C)n2nc(SCC(=O)Nc3sc4c(c3C(N)=O)CCC4)nc2n1 please 0.0

Entry O=C1C(=O)c2ccc(Br)cc2-c2cc(Br)ccc21 please 0.0

Entry Oc1ccccc1/C=N\Nc1ccccc1 please 0.0

Entry O=C1CN(CO)C(=O)CN1CO please 0.0

Entry CN(CC(=O)N(Cc1ccc(C2CCCCC2)cc1)c1ccc(C(=O)O)cc1)S(=O)(=O)c1c(F)c(F)c(F)c(F)c1F please 1.0

Entry COc1ccccc1[C@H]1c2[nH]c3ccccc3c2C[C@H]2C(=O)N(CCCCCCC(=O)NO)CC(=O)N12 please 0.0

Entry Clc1ccc(-c2nc(-c3cccs3)no2)c(Cl)c1 please 0.0

Entry Oc1ccc(Cc2ccc(O)c(C3CC(c4ccc(Cl)cc4)=NN3)c2)cc1C1CC(c2ccc(Cl)cc2)=NN1 (centres undefined) please 1.0

Entry COC(=O)[C@]12CC[C@@H](C)[C@H](C)[C@@H]1C1=CC[C@@H]3[C@@]4(C)C[C@@H](OC(=O)c5ccco5)[C@H](O)[C@@](C)(CO)[C@@H]4[C@H](O)C[C@@]3(C)[C@]1(C)CC2 please 1.0

Entry Cc1ccc(C(O)C2=CC(=O)c3ccccc3C2=O)cc1 (centres undefined) please 0.0

Entry CC(C)(C)c1ccc(C(O)CCCN2CCC(C(O)(c3ccccc3)c3ccccc3)CC2)cc1 (centres undefined) please 1.0

Entry C[C@]12C[C@H](O)[C@H]3[C@@H](CCC4=CC(=O)CC[C@@]43C)[C@@H]1CC[C@@H]2C(=O)CO please 0.0

Entry c1ccc(Nc2nnc(-c3cc(-c4cccnc4)n(-c4ccccc4)n3)s2)cc1 please 0.0

Entry Nc1ccccc1-c1ccc([N+](=O)[O-])cc1 please 0.0

Entry COc1cc(/C=C/C(=O)c2c(-c3ccc(Cl)cc3)nc3sc(C)nn23)cc(OC)c1OC please 0.0

Entry COc1ccc(-c2cnnn2-c2cc(OC)c3c(c2)OCO3)cc1 please 0.0

Entry Cc1c(C(N)=O)sc2c1c(=O)n(Cc1ccccc1)c1nnc(S(=O)(=O)CC(=O)Nc3ccc(Cl)cc3)n21 please 0.0

Entry COc1ccc2c(c1)C(=O)/C(=C/c1cccc(OCC(=O)c3ccccc3)c1)CC2 please 0.0

Entry CC(=O)c1ccc2c3c(n(C)c2c1)CCCC3 please 0.0

Entry CCCC[N+](CCCC)=c1ccc2nc3c(C)cc(N(CC)CC)cc3sc-2c1 please 1.0

Entry C[n+]1ccc(Nc2ccc(NC(=O)c3ccc(Nc4cc[n+](C)c5ccc(N)cc45)cc3)cc2)cc1 please 0.0

Entry Cc1cc(C)c(OC(=O)CSc2nc3ccccc3c(=O)n2CCc2ccccc2)cc1C please 0.0

Entry O=C1CC(C(F)(F)F)=NN1C(=O)c1nn(-c2ccc(Cl)cc2)cc1O please 0.0

Entry C=C1c2c(C)nn(-c3ccc(C#CCOC4OC(CO)C(O)C(O)C4O)cc3)c2N(C)C23C[C@H]1C1(C)c4c(C)nn(-c5ccc(C#CCOC6OC(CO)C(O)C(O)C6O)cc5)c4N(C)C(C)(C[C@H]12)C3 (some centres undefined) please 1.0

Entry Clc1cccc(Cc2cn3cc(-c4ccccc4)nc3s2)c1 please 0.0

Entry COC(=O)[C@]1(CCSC)N[C@H](c2cn(-c3ccccc3)nc2C)[C@@H]2C(=O)N(c3ccccc3)C(=O)[C@@H]21 please 0.0

Entry CCN(CC)CCOc1ccccc1-n1c(C)ccc1-c1ccccc1 please 0.0

Entry O=C(c1ccccc1)c1ccco1 please 0.0

Entry Cc1nn(-c2ccc(Cl)cc2)c2nc3c(nc12)c(=O)oc1ccccc13 please 0.0

Entry Cc1c(C(N)=O)sc2c1C(=O)N(Cc1ccccc1)C1=NN=C(c3ccc(Cl)cc3)CN12 please 0.0

Entry CC[N+](C)(CC)CCCC(C)Nc1ccnc2cc(Cl)ccc12 (centres undefined) please 0.0

Entry O=C(O)C(=O)O please 0.0
